# assayed-system: Cholinesterase (Homo sapiens, UniProt P06276)
# Sequence (P06276 whole entry): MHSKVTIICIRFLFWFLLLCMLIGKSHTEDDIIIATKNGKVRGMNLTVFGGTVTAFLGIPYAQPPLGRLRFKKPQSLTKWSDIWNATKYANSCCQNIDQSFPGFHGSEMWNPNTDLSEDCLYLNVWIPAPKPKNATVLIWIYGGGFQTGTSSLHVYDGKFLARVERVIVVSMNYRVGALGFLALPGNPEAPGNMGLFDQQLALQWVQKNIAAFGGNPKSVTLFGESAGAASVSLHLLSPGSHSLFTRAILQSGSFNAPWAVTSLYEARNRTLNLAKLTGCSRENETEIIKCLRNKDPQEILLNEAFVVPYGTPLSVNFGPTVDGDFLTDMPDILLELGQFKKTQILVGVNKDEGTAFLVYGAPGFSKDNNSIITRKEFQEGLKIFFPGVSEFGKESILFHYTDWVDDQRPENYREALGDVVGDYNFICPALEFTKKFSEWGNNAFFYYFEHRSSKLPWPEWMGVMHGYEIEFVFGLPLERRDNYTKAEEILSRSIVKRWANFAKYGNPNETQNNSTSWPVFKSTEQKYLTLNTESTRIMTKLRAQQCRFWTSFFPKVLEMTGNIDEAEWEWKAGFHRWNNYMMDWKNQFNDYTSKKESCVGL
# protocol-text: Inhibition of human serum BChE by Ellman's method
readout-label: IC50 (nM)
Numeric answer only, unit nM assumed.

QUERY: Quick one: IC50 for Cl.Cl.Cl.O=C(CCc1ccc2nc(-c3ccccc3)c3c(c2c1)OCCC3)NCCCCCCCNc1c2c(nc3cc(Cl)ccc13)CCCC2 ?
RESULT: 234

QUERY: Quick one: IC50 for Cl.Cl.O=C(CCc1ccc2nc(-c3ccccc3)c3c(c2c1)OCCC3)NCCCCCNc1c2c(nc3cc(Cl)ccc13)CCCC2 ?
RESULT: 290

QUERY: Quick one: IC50 for O=C(NCCCCCCCCNc1c2c(nc3cc(Cl)ccc13)CCCC2)c1ccc2nc(-c3ccc(Cl)cc3)c3c(c2c1)OCCC3 ?
RESULT: 331

QUERY: Quick one: IC50 for Cl.Cl.Cl.Cl.O=C(NCCCCCCCNc1c2c(nc3cc(Cl)ccc13)CCCC2)c1ccc2nc(-c3ccc(Cl)cc3)c3c(c2c1)OCCC3 ?
RESULT: 1930

QUERY: Quick one: IC50 for Cl.Cl.Cl.O=C(CCc1ccc2nc(-c3ccccc3)c3c(c2c1)OCCC3)NCCCCCCCCNc1c2c(nc3cc(Cl)ccc13)CCCC2 ?
RESULT: 1080

QUERY: Quick one: IC50 for Cl.Cl.Cl.O=C(CCc1ccc2nc(-c3ccccc3)c3c(c2c1)OCCC3)NCCCCCCNc1c2c(nc3cc(Cl)ccc13)CCCC2 ?
RESULT: 218

QUERY: Quick one: IC50 for Cl.Cl.Cl.O=C(CCc1ccc2nc(-c3ccccc3)c3c(c2c1)OCCC3)NCCCCNc1c2c(nc3cc(Cl)ccc13)CCCC2 ?
RESULT: 586

QUERY: Quick one: IC50 for Cl.Cl.Cl.Cl.O=C(NCCCCCCNc1c2c(nc3cc(Cl)ccc13)CCCC2)c1ccc2nc(-c3ccc(Cl)cc3)c3c(c2c1)OCCC3 ?
RESULT: 1070

QUERY: Quick one: IC50 for O=C(NCCCCCCCCCCNc1c2c(nc3cc(Cl)ccc13)CCCC2)c1ccc2nc(-c3ccc(Cl)cc3)c3c(c2c1)OCCC3 ?
RESULT: 1620

QUERY: Quick one: IC50 for O=C(NCCCCCCCCCNc1c2c(nc3cc(Cl)ccc13)CCCC2)c1ccc2nc(-c3ccc(Cl)cc3)c3c(c2c1)OCCC3 ?
RESULT: 1390

---

# assayed-system: Acetylcholinesterase (Bos taurus, UniProt P23795)
# Sequence (P23795 whole entry): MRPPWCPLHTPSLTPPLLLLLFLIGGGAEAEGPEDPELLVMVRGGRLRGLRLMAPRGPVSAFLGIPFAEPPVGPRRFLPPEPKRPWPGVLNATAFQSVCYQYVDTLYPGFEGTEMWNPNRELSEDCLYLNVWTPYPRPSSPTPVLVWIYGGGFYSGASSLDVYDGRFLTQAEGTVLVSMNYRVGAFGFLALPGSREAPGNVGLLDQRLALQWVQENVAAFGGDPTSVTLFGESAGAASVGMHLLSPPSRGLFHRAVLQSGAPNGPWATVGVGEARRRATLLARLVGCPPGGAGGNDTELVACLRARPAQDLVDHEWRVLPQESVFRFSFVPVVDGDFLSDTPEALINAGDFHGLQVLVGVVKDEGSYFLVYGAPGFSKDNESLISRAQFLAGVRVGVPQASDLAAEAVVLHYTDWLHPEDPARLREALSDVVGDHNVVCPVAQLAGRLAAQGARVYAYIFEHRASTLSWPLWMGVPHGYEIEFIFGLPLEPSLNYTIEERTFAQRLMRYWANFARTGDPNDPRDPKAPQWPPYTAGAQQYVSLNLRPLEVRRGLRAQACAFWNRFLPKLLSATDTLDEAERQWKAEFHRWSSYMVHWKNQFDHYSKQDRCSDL
readout-label: pIC50
// pIC50 is dimensionless: -log10 of concentration (M)

QUERY: Quick one: pIC50 for CC[N+](C)(CC)CCC[n+]1c(-c2ccccc2)c2cc(N)ccc2c2ccc(N)cc21 [PROPIDIUM] ?
RESULT: 5.20

QUERY: Quick one: pIC50 for Cl.Cl.Cl.O=C(CCc1ccc2nc(-c3ccccc3)c3c(c2c1)OCCC3)NCCCCCCCCNc1c2c(nc3cc(Cl)ccc13)CCCC2 ?
RESULT: 7.47

QUERY: Quick one: pIC50 for Cl.Cl.Cl.O=C(CCc1ccc2nc(-c3ccccc3)c3c(c2c1)OCCC3)NCCCCCCNc1c2c(nc3cc(Cl)ccc13)CCCC2 ?
RESULT: 7.51

QUERY: Quick one: pIC50 for Cl.Cl.Cl.Cl.O=C(NCCCCCCNc1c2c(nc3cc(Cl)ccc13)CCCC2)c1ccc2nc(-c3ccc(Cl)cc3)c3c(c2c1)OCCC3 ?
RESULT: 7.69

QUERY: Quick one: pIC50 for O=C(NCCCCCCCCCCNc1c2c(nc3cc(Cl)ccc13)CCCC2)c1ccc2nc(-c3ccc(Cl)cc3)c3c(c2c1)OCCC3 ?
RESULT: 7.03

QUERY: Quick one: pIC50 for Cl.Cl.O=C(CCc1ccc2nc(-c3ccccc3)c3c(c2c1)OCCC3)NCCCCCNc1c2c(nc3cc(Cl)ccc13)CCCC2 ?
RESULT: 7.62

QUERY: Quick one: pIC50 for Cl.Cl.Cl.O=C(CCc1ccc2nc(-c3ccccc3)c3c(c2c1)OCCC3)NCCCCCCCNc1c2c(nc3cc(Cl)ccc13)CCCC2 ?
RESULT: 7.52

QUERY: Quick one: pIC50 for O=C(NCCCCCCCCNc1c2c(nc3cc(Cl)ccc13)CCCC2)c1ccc2nc(-c3ccc(Cl)cc3)c3c(c2c1)OCCC3 ?
RESULT: 7.98

QUERY: Quick one: pIC50 for O=C(NCCCCCCCCCNc1c2c(nc3cc(Cl)ccc13)CCCC2)c1ccc2nc(-c3ccc(Cl)cc3)c3c(c2c1)OCCC3 ?
RESULT: 7.62

QUERY: Quick one: pIC50 for Cl.Cl.Cl.O=C(CCc1ccc2nc(-c3ccccc3)c3c(c2c1)OCCC3)NCCCCNc1c2c(nc3cc(Cl)ccc13)CCCC2 ?
RESULT: 7.32

QUERY: Quick one: pIC50 for Cl.Cl.Cl.Cl.O=C(NCCCCCCCNc1c2c(nc3cc(Cl)ccc13)CCCC2)c1ccc2nc(-c3ccc(Cl)cc3)c3c(c2c1)OCCC3 ?
RESULT: 7.99

---

For each entry below, report its Papp value.
# protocol-text: in vitro
# reported-conditions: PAMPA
# Description: Membrane permeability dissolved in PBS/EtOH (70:30) mixture by PAMPA-BBB assay
Numeric answer only, unit ×10⁻⁶ cm/s assumed.

QUERY: Quick one: Papp for CN(C)CCCN1c2ccccc2Sc2ccc(Cl)cc21 ?
RESULT: 13.6

QUERY: Quick one: Papp for Cl.Cl.Cl.Cl.O=C(NCCCCCCCNc1c2c(nc3cc(Cl)ccc13)CCCC2)c1ccc2nc(-c3ccc(Cl)cc3)c3c(c2c1)OCCC3 ?
RESULT: 17.7

QUERY: Quick one: Papp for Cl.Cl.Cl.O=C(CCc1ccc2nc(-c3ccccc3)c3c(c2c1)OCCC3)NCCCCCCCNc1c2c(nc3cc(Cl)ccc13)CCCC2 ?
RESULT: 10.2

QUERY: Quick one: Papp for Cl.Cl.Cl.O=C(CCc1ccc2nc(-c3ccccc3)c3c(c2c1)OCCC3)NCCCCCCCCNc1c2c(nc3cc(Cl)ccc13)CCCC2 ?
RESULT: 10.1

QUERY: Quick one: Papp for Cl.Cl.Cl.Cl.O=C(NCCCCCCNc1c2c(nc3cc(Cl)ccc13)CCCC2)c1ccc2nc(-c3ccc(Cl)cc3)c3c(c2c1)OCCC3 ?
RESULT: 14.9

QUERY: Quick one: Papp for Cl.Cl.O=C(CCc1ccc2nc(-c3ccccc3)c3c(c2c1)OCCC3)NCCCCCNc1c2c(nc3cc(Cl)ccc13)CCCC2 ?
RESULT: 10.6

---

# assayed-system: Beta-secretase 1 (Homo sapiens, UniProt P56817)
# Sequence (P56817 whole entry): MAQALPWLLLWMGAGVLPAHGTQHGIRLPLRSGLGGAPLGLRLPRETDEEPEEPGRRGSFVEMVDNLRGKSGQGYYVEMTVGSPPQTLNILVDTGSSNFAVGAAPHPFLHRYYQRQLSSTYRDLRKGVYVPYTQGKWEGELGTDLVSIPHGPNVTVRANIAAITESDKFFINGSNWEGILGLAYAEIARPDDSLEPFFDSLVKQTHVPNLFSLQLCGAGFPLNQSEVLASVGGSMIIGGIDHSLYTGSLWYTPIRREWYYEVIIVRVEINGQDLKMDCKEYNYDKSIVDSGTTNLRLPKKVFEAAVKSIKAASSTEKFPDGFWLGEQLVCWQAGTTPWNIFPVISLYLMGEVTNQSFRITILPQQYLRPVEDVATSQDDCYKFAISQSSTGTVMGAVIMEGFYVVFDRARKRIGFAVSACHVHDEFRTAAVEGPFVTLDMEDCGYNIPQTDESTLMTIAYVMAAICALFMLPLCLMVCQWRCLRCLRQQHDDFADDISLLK
# protocol-text: Inhibition of human recombinant BACE1 by fluorimetric assay
readout-label: IC50 (µM)
Numeric answer only, unit µM assumed.

QUERY: Quick one: IC50 for c1ccc2c(NCCCCCCCNc3c4c(nc5ccccc35)CCCC4)c3c(nc2c1)CCCC3 ?
RESULT: 7.5

QUERY: Quick one: IC50 for Cl.Cl.Cl.O=C(CCc1ccc2nc(-c3ccccc3)c3c(c2c1)OCCC3)NCCCCCCCCNc1c2c(nc3cc(Cl)ccc13)CCCC2 ?
RESULT: 1.81

---

Entries with their measured pIC50, system Acetylcholinesterase (Homo sapiens):
// pIC50 is dimensionless: -log10 of concentration (M)

QUERY: Quick one: pIC50 for O=C(NCCCCCCCCNc1c2c(nc3cc(Cl)ccc13)CCCC2)c1ccc2nc(-c3ccc(Cl)cc3)c3c(c2c1)OCCC3 ?
RESULT: 8.15

QUERY: Quick one: pIC50 for Cl.Cl.Cl.O=C(CCc1ccc2nc(-c3ccccc3)c3c(c2c1)OCCC3)NCCCCCCCNc1c2c(nc3cc(Cl)ccc13)CCCC2 ?
RESULT: 7.84

QUERY: Quick one: pIC50 for Cl.Cl.Cl.Cl.O=C(NCCCCCCCNc1c2c(nc3cc(Cl)ccc13)CCCC2)c1ccc2nc(-c3ccc(Cl)cc3)c3c(c2c1)OCCC3 ?
RESULT: 7.74

QUERY: Quick one: pIC50 for Cl.Cl.Cl.O=C(CCc1ccc2nc(-c3ccccc3)c3c(c2c1)OCCC3)NCCCCCCCCNc1c2c(nc3cc(Cl)ccc13)CCCC2 ?
RESULT: 7.85

QUERY: Quick one: pIC50 for O=C(NCCCCCCCCCCNc1c2c(nc3cc(Cl)ccc13)CCCC2)c1ccc2nc(-c3ccc(Cl)cc3)c3c(c2c1)OCCC3 ?
RESULT: 7.30

QUERY: Quick one: pIC50 for Cl.Cl.Cl.O=C(CCc1ccc2nc(-c3ccccc3)c3c(c2c1)OCCC3)NCCCCNc1c2c(nc3cc(Cl)ccc13)CCCC2 ?
RESULT: 7.78

QUERY: Quick one: pIC50 for Cl.Cl.Cl.Cl.O=C(NCCCCCCNc1c2c(nc3cc(Cl)ccc13)CCCC2)c1ccc2nc(-c3ccc(Cl)cc3)c3c(c2c1)OCCC3 ?
RESULT: 7.72

QUERY: Quick one: pIC50 for O=C(NCCCCCCCCCNc1c2c(nc3cc(Cl)ccc13)CCCC2)c1ccc2nc(-c3ccc(Cl)cc3)c3c(c2c1)OCCC3 ?
RESULT: 7.60

QUERY: Quick one: pIC50 for Cl.Cl.O=C(CCc1ccc2nc(-c3ccccc3)c3c(c2c1)OCCC3)NCCCCCNc1c2c(nc3cc(Cl)ccc13)CCCC2 ?
RESULT: 8.02

QUERY: Quick one: pIC50 for Cl.Cl.Cl.O=C(CCc1ccc2nc(-c3ccccc3)c3c(c2c1)OCCC3)NCCCCCCNc1c2c(nc3cc(Cl)ccc13)CCCC2 ?
RESULT: 7.95
